subject_of_test: hM3Ds (Homo sapiens, UniProt P20309, A178S/A239G/A490L/DEL258-409/DEL413-482/I254V/INS485[…]/K179L/K183A/K256R/K487Q/L174F/L483Q/R172S/R177Q/R180L/T175R/T182R/Y149C/Y255F)
Sequence (P20309 with tags, fused parts or gaps Y149C/R172S/L174F/T175R/R177Q/A178S/K179L/R180L/T182R/K183A/A239G/I254V/Y255F/K256R/DEL258-409/DEL413-482/L483Q/INS485[…]/K487Q/A490L): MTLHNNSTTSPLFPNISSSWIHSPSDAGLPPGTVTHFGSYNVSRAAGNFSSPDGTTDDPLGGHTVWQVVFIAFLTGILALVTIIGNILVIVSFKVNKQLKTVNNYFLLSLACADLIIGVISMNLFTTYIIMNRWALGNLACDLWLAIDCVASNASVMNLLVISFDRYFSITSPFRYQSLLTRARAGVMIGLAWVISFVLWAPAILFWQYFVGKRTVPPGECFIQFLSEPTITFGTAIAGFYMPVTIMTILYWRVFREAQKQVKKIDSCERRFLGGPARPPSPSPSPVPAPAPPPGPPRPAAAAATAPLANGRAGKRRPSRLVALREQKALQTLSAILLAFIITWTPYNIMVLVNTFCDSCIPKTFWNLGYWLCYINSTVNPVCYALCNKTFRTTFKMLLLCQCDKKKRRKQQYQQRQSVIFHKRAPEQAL
measurement_conditions: CNO on hM3Ds, HEK293T, 6 h, firefly/renilla luciferase ratio
quantity_name: pEC50
Lab note: report pEC50 as minus log10 of the concentration in molar units, number only.

Identify the reported pEC50 for the following entry. C[N+]1([O-])CCN(C2=Nc3cc(Cl)ccc3Nc3ccccc32)CC1 [CNO, clozapine N-oxide]
8.90
